testedSystem: UniProt Q29550
Sequence (Q29550 19-566): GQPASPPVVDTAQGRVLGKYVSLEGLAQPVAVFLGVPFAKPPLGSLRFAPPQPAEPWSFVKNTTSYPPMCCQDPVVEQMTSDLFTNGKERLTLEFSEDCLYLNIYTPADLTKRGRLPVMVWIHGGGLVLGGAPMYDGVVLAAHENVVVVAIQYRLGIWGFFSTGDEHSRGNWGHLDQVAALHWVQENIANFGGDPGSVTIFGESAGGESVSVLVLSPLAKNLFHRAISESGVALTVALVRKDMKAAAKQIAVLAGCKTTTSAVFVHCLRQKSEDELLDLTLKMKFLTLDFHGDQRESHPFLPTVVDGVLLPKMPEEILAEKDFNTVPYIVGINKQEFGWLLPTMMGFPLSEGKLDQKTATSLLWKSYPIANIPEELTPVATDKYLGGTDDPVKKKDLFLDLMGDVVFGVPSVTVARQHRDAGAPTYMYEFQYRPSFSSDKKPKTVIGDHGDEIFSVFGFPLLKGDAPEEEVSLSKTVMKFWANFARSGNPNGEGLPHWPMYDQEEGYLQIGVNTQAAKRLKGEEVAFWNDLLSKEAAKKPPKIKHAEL
assayComment: PMPMEase enzyme assay with RD-PNB substrate
Format: biochemical, porcine
measuredParameter: Ki

CCCCCCCCCCCCCCCCCCCC(=O)O [Arachidic acid] : > 28000 nM

I have this compound here, CCCCC/C=C\C/C=C\CCCCCCCC(=O)O [Linoleic acid] , and I need its recorded Ki. 1800 nM

Cool, now CCCCCC/C=C\CCCCCCCC(=O)O [Palmitoleic acid] 1000 nM

Cool, now CCCCCCCC/C=C\CCCCCCCCCCCC(=O)O [Erucic acid] > 28000 nM

Cool, now CCCC/C=C\CCCCCCCC(=O)O [Myristoleic acid] 1800 nM

Cool, now CCCCCCCC/C=C/CCCCCCCC(=O)O [Elaidic acid] > 28000 nM

Cool, now CCCCCCCCCCCCCCCC(=O)O [Palmitic acid] > 28000 nM

Cool, now CCCCCCCCCC(=O)O [Decanoic acid] > 28000 nM
